Where do these numbers come from? They come from patent US20240400663A1.

subject of test: PfRH5 of Plasmodium falciparum strain Dd2 (on live parasites) (Plasmodium falciparum)
assay text: cell-based or functional assay
observed property: Max growth inhibition (%) Dd2
Give bare numbers, in %.

(Q) Note Max growth inhibition (%) Dd2 for the binder shown: H1H29089P (antibody, V domains shown) VH: EVQLVQSGAEVKKPGESLKISCKGSGYSFTSYWIVWVRQMPGKGLEWMGIIYPGDSDTRYSPSFQGQVTISADKSISTAYLQWSSLKASDTAMYYCARQDITGTTGFDYWGQGTLVTVSS VL: DIQMTQSPSSLSASVGDRVTITCRASQSIRNYLNWYQQKPGKAPKLLIYAASSLQSGVPSRFSGSGSGTDFTLTISSLQPEDFATYFCQQSYSTPFTFGPGTKVDIKR
(A) 71.3
